System: CUG foci in primary DM1 patient myoblasts
Experiment: Dual-cut screening: FISH staining of CUG RNA foci
Format: cell-based, human
Conditions: sgRNA pair; primary DM1 patient myoblasts; 3 μM DNA-PKi Compound 6 for 48 hours
Protocol: RNPs were assembled with recombinant SluCas9 protein and chemically modified sgRNAs at a ratio of 1:3 (protein:sgRNA). […] Primary myoblasts were fixed for 15 min with 4% paraformaldehyde (PFA) and washed five times with 1×PBS for 10 min each at room temperature. […] RNA foci quantifications were accomplished with a customized analysis module of the MetaXpress program (Molecular Devices). […]
Overview of reported % of CUG foci free nuclei (DNA-PKi) across a group of substances:

- substance: "SluU21 + SluD48 (guide 1 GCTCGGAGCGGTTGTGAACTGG; guide 2 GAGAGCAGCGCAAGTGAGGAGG; guide RNA; listed as DNA, chemistry not fully specified)"
  output_unit: "%"
  % of CUG foci free nuclei (DNA-PKi): 86.36
- substance: "SluU62 + SluD56 (guide 1 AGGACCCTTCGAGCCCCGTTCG; guide 2 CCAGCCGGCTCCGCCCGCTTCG; guide RNA; listed as DNA, chemistry not fully specified)"
  output_unit: "%"
  % of CUG foci free nuclei (DNA-PKi): 84.3
- substance: "SluU08 + SluD06 (guide 1 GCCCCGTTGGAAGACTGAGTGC; guide 2 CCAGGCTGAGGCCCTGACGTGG; guide RNA; listed as DNA, chemistry not fully specified)"
  output_unit: "%"
  % of CUG foci free nuclei (DNA-PKi): 86.69
- substance: "SluU59 + SluD14 (guide 1 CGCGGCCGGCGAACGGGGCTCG; guide 2 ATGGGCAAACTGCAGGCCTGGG; guide RNA; listed as DNA, chemistry not fully specified)"
  output_unit: "%"
  % of CUG foci free nuclei (DNA-PKi): 84.86
- substance: "SluU63 + SluD83 (guide 1 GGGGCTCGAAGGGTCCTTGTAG; guide 2 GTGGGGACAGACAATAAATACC; guide RNA; listed as DNA, chemistry not fully specified)"
  output_unit: "%"
  % of CUG foci free nuclei (DNA-PKi): 89.8
- substance: "SluU64 + SluD100 (guide 1 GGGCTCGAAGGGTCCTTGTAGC; guide 2 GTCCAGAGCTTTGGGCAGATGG; guide RNA; listed as DNA, chemistry not fully specified)"
  output_unit: "%"
  % of CUG foci free nuclei (DNA-PKi): 85.89
- substance: "SluU08 + SluD100 (guide 1 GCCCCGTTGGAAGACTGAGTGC; guide 2 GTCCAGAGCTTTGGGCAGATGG; guide RNA; listed as DNA, chemistry not fully specified)"
  output_unit: "%"
  % of CUG foci free nuclei (DNA-PKi): 88.59
- substance: "SluU62 + SluD14 (guide 1 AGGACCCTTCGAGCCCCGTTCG; guide 2 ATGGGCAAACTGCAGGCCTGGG; guide RNA; listed as DNA, chemistry not fully specified)"
  output_unit: "%"
  % of CUG foci free nuclei (DNA-PKi): 85.7
- substance: "SluU64 + SluD14 (guide 1 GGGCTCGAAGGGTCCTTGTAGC; guide 2 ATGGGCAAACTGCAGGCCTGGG; guide RNA; listed as DNA, chemistry not fully specified)"
  output_unit: "%"
  % of CUG foci free nuclei (DNA-PKi): 86.07
- substance: "SluU08 + SluD56 (guide 1 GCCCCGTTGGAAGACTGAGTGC; guide 2 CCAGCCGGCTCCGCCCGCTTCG; guide RNA; listed as DNA, chemistry not fully specified)"
  output_unit: "%"
  % of CUG foci free nuclei (DNA-PKi): 83.74
- substance: "SluU64 + SluD83 (guide 1 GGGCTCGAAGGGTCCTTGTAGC; guide 2 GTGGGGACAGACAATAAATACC; guide RNA; listed as DNA, chemistry not fully specified)"
  output_unit: "%"
  % of CUG foci free nuclei (DNA-PKi): 90.63
- substance: "SluU21 + SluD73 (guide 1 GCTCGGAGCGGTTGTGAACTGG; guide 2 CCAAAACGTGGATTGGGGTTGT; guide RNA; listed as DNA, chemistry not fully specified)"
  output_unit: "%"
  % of CUG foci free nuclei (DNA-PKi): 88.18
- substance: "SluU62 + SluD18 (guide 1 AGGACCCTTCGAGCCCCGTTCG; guide 2 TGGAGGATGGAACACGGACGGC; guide RNA; listed as DNA, chemistry not fully specified)"
  output_unit: "%"
  % of CUG foci free nuclei (DNA-PKi): 89.32
- substance: "SluU21 + SluD32 (guide 1 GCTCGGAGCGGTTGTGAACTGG; guide 2 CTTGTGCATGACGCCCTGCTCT; guide RNA; listed as DNA, chemistry not fully specified)"
  output_unit: "%"
  % of CUG foci free nuclei (DNA-PKi): 88.76
- substance: "SluU06 + SluD68 (guide 1 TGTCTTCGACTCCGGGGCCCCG; guide 2 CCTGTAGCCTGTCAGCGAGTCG; guide RNA; listed as DNA, chemistry not fully specified)"
  output_unit: "%"
  % of CUG foci free nuclei (DNA-PKi): 89.4
- substance: "SluU06 + SluD32 (guide 1 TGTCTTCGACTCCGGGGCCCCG; guide 2 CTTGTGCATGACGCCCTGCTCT; guide RNA; listed as DNA, chemistry not fully specified)"
  output_unit: "%"
  % of CUG foci free nuclei (DNA-PKi): 89.84
- substance: "SluU63 + SluD68 (guide 1 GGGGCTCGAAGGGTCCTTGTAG; guide 2 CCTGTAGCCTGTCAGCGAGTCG; guide RNA; listed as DNA, chemistry not fully specified)"
  output_unit: "%"
  % of CUG foci free nuclei (DNA-PKi): 90.625
- substance: "SluU62 + SluD06 (guide 1 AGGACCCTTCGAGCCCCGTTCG; guide 2 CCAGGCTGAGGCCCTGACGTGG; guide RNA; listed as DNA, chemistry not fully specified)"
  output_unit: "%"
  % of CUG foci free nuclei (DNA-PKi): 86.07
- substance: "SluU62 + SluD32 (guide 1 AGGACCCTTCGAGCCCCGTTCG; guide 2 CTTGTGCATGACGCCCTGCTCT; guide RNA; listed as DNA, chemistry not fully specified)"
  output_unit: "%"
  % of CUG foci free nuclei (DNA-PKi): 88.75

Sourced from patent US20240173432A1
